All figures here come from patent US9302999B2.

System: barnyardgrass (Echinochloa crus-galli)
experimental.protocol: Test A pre-/postemergence: barnyardgrass
Type: in vivo
assay.setup: Postemergence, 125 g ai/ha; 0 to 100 scale, 0 is no effect, 100 is complete control
measurement.label: Barnyardgrass plant response rating

- compound: "Cc1nn(-c2ccc(C(F)(F)F)cc2)nc1Oc1ccccc1Cl [Compound 82]"
  measurement.label: "Barnyardgrass plant response rating"
  endpoint.value: 0
- compound: "CCc1nn(-c2ccc(C(F)(F)F)cc2)nc1Cn1cc(C(F)(F)F)nc1Cl [Compound 122]"
  measurement.label: "Barnyardgrass plant response rating"
  endpoint.value: 40
- compound: "Cc1nn(-c2ccc(C(F)(F)F)cc2)nc1Oc1ccc(Cl)c(C(F)(F)F)c1 [Compound 103]"
  measurement.label: "Barnyardgrass plant response rating"
  endpoint.value: 0

###

# key: entry, value: Plant response rating, Sedge, Umbrella
Test system: sedge, umbrella (small-flower umbrella sedge, Cyperus difformis)
experimental.protocol: Test C flooded paddy test: sedge, umbrella
Format: in vivo
assay.setup: Flood (flooded paddy test), 125 g ai/ha; visual rating after 13 to 15 days, scale 0 to 100 (0 no effect, 100 complete control)

- molecule.smiles: "Cc1nn(-c2ccc(C(F)(F)F)cn2)nc1Cn1nc(C(F)(F)F)cc1C"
  Plant response rating, Sedge, Umbrella: 0
- molecule.smiles: "Cc1nn(-c2cccc(C(F)(F)F)c2)nc1Oc1ccnc(C(F)(F)F)c1"
  Plant response rating, Sedge, Umbrella: 80
- molecule.smiles: "Cc1nn(-c2ccc(C(F)(F)F)cc2)nc1C(=O)c1cccc(C(F)(F)F)c1"
  Plant response rating, Sedge, Umbrella: 0

###

System: corn (Zea mays)
experimental.protocol: Test A pre-/postemergence: corn
Assay type: in vivo
assay.setup: Preemergence, 500 g ai/ha; 0 to 100 scale, 0 is no effect, 100 is complete control
# key: entry, value: Plant response rating, Corn

- molecule.smiles: "Cc1nn(-c2ccc(C(F)(F)F)cn2)nc1Cn1nc(C(F)(F)F)cc1C"
  Plant response rating, Corn: 0
- molecule.smiles: "Cc1nn(-c2cncc(C(F)(F)F)c2)nc1C(=O)c1cccc(C(F)(F)F)c1"
  Plant response rating, Corn: 0
- molecule.smiles: "Cc1nn(-c2ccc(F)cc2)nc1Cn1ccc(C(F)(F)F)n1"
  Plant response rating, Corn: 0
